Values compiled from paper PMC9820559.

Molecular target: T1, RSV nucleoprotein N-terminal domain NNTD (residues 31–252) (human respiratory syncytial virus, UniProt P03418 31-252)
T1 construct: N-terminal domain of human RSV nucleoprotein N, residues 31-252; 15N-labelled for the NMR titration; also called N(31–252); 15N-NNTD; source: E. coli BL21(DE3), pET-N(31–252), purified as described previously [21]
T1 sequence (looked up): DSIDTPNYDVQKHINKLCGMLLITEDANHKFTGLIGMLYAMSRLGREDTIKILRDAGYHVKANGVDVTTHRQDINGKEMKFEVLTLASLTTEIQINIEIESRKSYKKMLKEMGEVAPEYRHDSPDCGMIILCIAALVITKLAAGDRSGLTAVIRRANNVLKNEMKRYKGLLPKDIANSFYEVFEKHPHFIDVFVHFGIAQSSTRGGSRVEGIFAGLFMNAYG
Test: fluorescence polarisation; 200 nM F11, NNTD varied; 20 mM MES pH 6.5 without salt, 0.01% Brij-35; 20 °C; single site plus a linear contribution
Settings: both partners purified
Ends that are not written are not given here. * marks the point of attachment. FITC = O=C1OC2(c3ccc(O)cc3Oc3cc(O)ccc32)c2ccc(NC(=S)*)cc21
Recorded metric: Kd (nM)

| Binder | Quantitative readout |
| --- | --- |
| {FITC}-DSDNDLSLEDF (C-terminal 11 residues of RSV phosphoprotein P; also called F_(11SS); FTU-P11; source: bought P11 peptide (GeneCust), FITC coupled in solution, HPLC purified) [F11 (fluorescein-5-thiourea-labelled RSV P11 peptide)] | 600 |
